- TESTED ON: Phosphatidylinositol 5-phosphate 4-kinase type-2 alpha (Homo sapiens)
- EXPERIMENT SUMMARY: qHTS for Inhibitors of phosphatidylinositol 5-phosphate 4-kinase (PI5P4K)
- STUDY CONDITIONS: PI5P4Kalpha enzyme, ADP-Glo luminescence, 60 min
About 4,100 (1.2%) of roughly 330,000 compounds were called active. Not shown: some 2% with an inconclusive outcome. Rule for the calls: active = max response of -50% or lower; inconclusive = between -30% and -50%; inactive = -30% or higher. This excerpt belongs to a sample that is enriched for actives.
The reply should name one outcome from active, inactive

Q: Entry CC1(Oc2ccccc2-c2ccno2)CCN(Cc2ccc(-c3ccccc3)o2)C1 (stereo unspecified) : call = ?
Result: inactive

Q: Entry "COc1cc2c(C(=O)O)c(C)n(C)c2c2ccccc12" : call = ?
Result: inactive

Q: Entry O=C(Nc1ncc([N+](=O)[O-])s1)C1COc2ccccc2O1 (stereo unspecified) : call = ?
Result: inactive

Q: Entry COc1ccc(OC)c2sc(NC(=O)C3COc4ccccc4O3)nc12 (stereo unspecified) : call = ?
Result: inactive

Q: Entry O=C(Nc1nc(-c2ccncc2)cs1)C1COc2ccccc2O1 (stereo unspecified) : call = ?
Result: active

Q: Entry "COc1cccc2c(C)c(C(=O)O)[nH]c12" : call = ?
Result: active

###

Would you mind telling me the reported max response of each entry?
- TESTED ON: Phosphatidylinositol 5-phosphate 4-kinase type-2 alpha (Homo sapiens) (UniProt P48426)
- Sequence (P48426 whole entry, looked up): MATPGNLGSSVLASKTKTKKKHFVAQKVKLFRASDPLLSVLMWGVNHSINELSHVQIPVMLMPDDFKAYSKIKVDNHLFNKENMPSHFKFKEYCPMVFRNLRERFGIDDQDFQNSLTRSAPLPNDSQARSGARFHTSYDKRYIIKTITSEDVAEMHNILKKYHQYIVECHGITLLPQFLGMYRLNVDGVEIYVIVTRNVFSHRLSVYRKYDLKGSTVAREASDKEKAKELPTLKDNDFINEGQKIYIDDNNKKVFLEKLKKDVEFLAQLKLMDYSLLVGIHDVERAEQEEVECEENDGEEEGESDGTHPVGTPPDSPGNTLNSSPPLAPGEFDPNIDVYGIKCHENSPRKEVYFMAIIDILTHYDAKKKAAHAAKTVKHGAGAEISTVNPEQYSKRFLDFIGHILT
- EXPERIMENT SUMMARY: qHTS for Inhibitors of phosphatidylinositol 5-phosphate 4-kinase (PI5P4K); note: value at the top dose of about 77 µM; % is set by controls: 0 for no effect and ±100 for the full control effect
- STUDY CONDITIONS: PI5P4Kalpha enzyme, ADP-Glo luminescence, 60 min; stronger effect = lower value
Screen size: about 330,000 compounds; about 4,100 (1.2%) were called active. About 2% were inconclusive and are not listed. Only a selection was taken, and actives are over-represented in it overall.
Lab book: enter the figure in %, no units written.

Q: Report max response, nothing else, for this compound: "CCc1nc2c(OCCOc3ccc(F)cc3)cccn2c1N(C)C(=O)c1ccccc1F"
Result: -7.43

Q: Report max response, nothing else, for this compound: "COc1ccc(NC(=O)CNC(=O)Cc2ccccc2)cc1OC"
Result: -2.31

Q: Report max response, nothing else, for this compound: "COC(=O)[C@@]12C[C@@H](CC(=O)N3CCC(c4ccccc4)CC3)C(=O)N(Cc3ccccc3)C1=CCC(C)(C)C2"
Result: 3.29

Q: Report max response, nothing else, for this compound: O=C1c2ccccc2-c2ccccc2NC1O (stereo not given)
Result: -1.89

Q: Report max response, nothing else, for this compound: "COC(=O)[C@]12CCCCC=C1N(Cc1ccccc1)C(=O)[C@H](CC(=O)NCc1ccc(C)o1)C2"
Result: -16.1

Q: Report max response, nothing else, for this compound: "CCN(CC)CCNC(=O)c1ccc(NC(=O)c2cc(-c3ccncc3)nc3ccccc23)cc1"
Result: -5.2

Q: Report max response, nothing else, for this compound: "Cc1ccc(S(=O)(=O)N2CCC(=O)N([C@H](COCc3ccccc3)C(C)C)CC2)cc1"
Result: -1.43

Q: Report max response, nothing else, for this compound: "O=C(Nc1ccc(S(=O)(=O)Nc2nccs2)cc1)c1cc(-c2ccncc2)nc2ccccc12"
Result: -67.1

Q: Report max response, nothing else, for this compound: "C=CCn1cnc2scc(-c3ccccc3)c2c1=O"
Result: -1.04

Q: Report max response, nothing else, for this compound: COCOc1cccc(CN2CCC(C)(Oc3ccc(SC)cc3)C2)c1 (stereo not given)
Result: 9.73

###

- TESTED ON: Phosphatidylinositol 5-phosphate 4-kinase type-2 alpha (Homo sapiens) (UniProt P48426)
- EXPERIMENT SUMMARY: qHTS for Inhibitors of phosphatidylinositol 5-phosphate 4-kinase (PI5P4K); note: value at the top dose of about 77 µM; % is set by controls: 0 for no effect and ±100 for the full control effect
- STUDY CONDITIONS: PI5P4Kalpha enzyme, ADP-Glo luminescence, 60 min
Hit rate of the full screen: of about 330,000 compounds, about 4,100 (1.2%) were called active. Another 2% or so got no clear call; they are omitted. How the source made its calls: active means max response of -50% or lower; inconclusive means between -30% and -50%; inactive means -30% or higher. Only a selection was taken, and actives are over-represented in it overall.
The reply should name one outcome from active, inactive

Q: Entry O=C(N/N=C/c1cc2c(cc1Br)OCO2)C1COc2ccccc2O1 (stereo unspecified) : call = ?
Result: inactive

Q: Entry CC(=O)C1=CCC(c2ccccc2)N(S(=O)(=O)c2ccc(C)cc2)C1 (stereo unspecified) : call = ?
Result: inactive

Q: Entry O=C(N/N=C\c1cc(Br)c(Br)o1)C1COc2ccccc2O1 (stereo unspecified) : call = ?
Result: inactive

Q: Entry "COc1ccc(S(=O)(=O)N(C)CC(=O)N2CCCC2)cc1Cl" : call = ?
Result: inactive

Q: Entry COc1ccc(C(O)c2nc(-c3ccc4c(c3)OCO4)cs2)cc1 (stereo unspecified) : call = ?
Result: inactive

Q: Entry "Cc1csc(NC(=O)Nc2ccccc2[N+](=O)[O-])n1" : call = ?
Result: inactive

Q: Entry "CC=CCn1c(SCCCc2ccccc2)nc2c1c(=O)[nH]c(=O)n2C" : call = ?
Result: inactive

Q: Entry "COc1ccc(S(=O)(=O)Nc2ccc3c(c2)OCO3)cc1Cl" : call = ?
Result: inactive

Q: Entry "Cc1cc(NC(=O)Nc2ccccc2[N+](=O)[O-])no1" : call = ?
Result: active

Q: Entry "O=C1NC[C@H](CCCCN2CCN(CCc3ccccc3)C(=O)C2=O)N(CC2CCCCC2)C1=O" : call = ?
Result: inactive

Q: Entry "Cc1cc(C)n2c(NCc3ccccc3)c(CC(C)C)nc2n1" : call = ?
Result: inactive

###

- TESTED ON: Phosphatidylinositol 5-phosphate 4-kinase type-2 alpha (Homo sapiens)
- EXPERIMENT SUMMARY: qHTS for Inhibitors of phosphatidylinositol 5-phosphate 4-kinase (PI5P4K); note: value at the top dose of about 77 µM; % is set by controls: 0 for no effect and ±100 for the full control effect
- STUDY CONDITIONS: PI5P4Kalpha enzyme, ADP-Glo luminescence, 60 min; stronger effect = lower value
Screen size: about 330,000 compounds; about 4,100 (1.2%) were called active. Inconclusive results (about 2%) are left out. Many of the other results were omitted from the sample, so actives are more common in it than they were.
Would you mind telling me the reported max response of each entry?
Lab book: enter the figure in %, no units written.

Q: Report max response, nothing else, for this compound: CCCCCn1nnnc1C1c2ccccc2C(=O)N1Cc1ccco1 (configuration not stated)
Result: -0.242

Q: Report max response, nothing else, for this compound: CC(=O)Nc1cccc(-c2ccnc3c2CC(C)(C(=O)NCc2ccccc2)O3)c1 (configuration not stated)
Result: 0.0166

Q: Report max response, nothing else, for this compound: "C=CCc1cccc(/C=N/NC(=O)COc2ccc(-n3cnnn3)cc2)c1O"
Result: -0.249

Q: Report max response, nothing else, for this compound: "COc1cc(/C=N/O)cc(Br)c1OCc1cccc(Cl)c1"
Result: 39.6

Q: Report max response, nothing else, for this compound: "CCc1nc2ccc(C(=O)Nc3ccc(OC)c(OC)c3)cn2c1N(C)C(=O)c1cccc(OC)c1"
Result: 3.96

Q: Report max response, nothing else, for this compound: "COc1cc(/C=C2/C(=O)NN(c3ccc(F)cc3)C2=O)cc([N+](=O)[O-])c1O"
Result: -57.5

Q: Report max response, nothing else, for this compound: "CNc1cnc(-c2cc(OC)c(OC)c(OC)c2)cn1"
Result: 1.71

Q: Report max response, nothing else, for this compound: O=C1/C(=C/c2ccc(F)cc2)SC(=S)N1CCCC(=O)N1CCCCC1CCO (configuration not stated)
Result: 0.801

Q: Report max response, nothing else, for this compound: COc1cc(CN2CC(C)CC(C)C2)cc([N+](=O)[O-])c1O (configuration not stated)
Result: 0.224

Q: Report max response, nothing else, for this compound: "C1=C(N2CCOCC2)/C(=C/c2nc3ccccc3[nH]2)CC1"
Result: -77.5

Q: Report max response, nothing else, for this compound: "O=C1/C(=C/c2ccc(F)cc2)SC(=S)N1NS(=O)(=O)c1ccccc1"
Result: -65.3

Q: Report max response, nothing else, for this compound: "COCCNC(=O)Nc1ccc2nc(-c3ccco3)c(-c3ccco3)nc2c1"
Result: -88.9

Q: Report max response, nothing else, for this compound: COc1cccc(CNC(=O)CN2C(=O)NC(Cc3ccccc3)(c3ccccc3)C2=O)c1 (configuration not stated)
Result: -83.2

Q: Report max response, nothing else, for this compound: "COc1cccc(NC(=O)NCCN2CCCCC2)c1"
Result: 3.3

Q: Report max response, nothing else, for this compound: "C[C@H]1CN([C@@H](C)CO)C(=O)c2cc(C3=CCCCC3)cnc2O[C@@H]1CN(C)C(=O)Cc1ccccc1"
Result: -2.83

Q: Report max response, nothing else, for this compound: "O=c1[nH]c(N2CCOCC2)nc2ccccc12"
Result: -4.73

Q: Report max response, nothing else, for this compound: COc1cccc(CNC(=O)COC(=O)CN2C(=O)NC3(CCCCC3C)C2=O)c1 (configuration not stated)
Result: -4.41

###

- TESTED ON: Phosphatidylinositol 5-phosphate 4-kinase type-2 alpha (Homo sapiens) (UniProt P48426)
- EXPERIMENT SUMMARY: qHTS for Inhibitors of phosphatidylinositol 5-phosphate 4-kinase (PI5P4K); note: value at the top dose of about 77 µM; % is set by controls: 0 for no effect and ±100 for the full control effect
- STUDY CONDITIONS: PI5P4Kalpha enzyme, ADP-Glo luminescence, 60 min; stronger effect = lower value
Screen size: about 330,000 compounds; about 4,100 (1.2%) were called active. Another 2% or so got no clear call; they are omitted. What follows is part of a selection rich in actives, with near analogues and random picks from the rest.
PROPERTY MEASURED: max response

Q: Report max response, nothing else, for this molecule: "COc1cc(NC(=O)c2cc(-c3ccc(F)cc3OC(C)C)n[nH]2)cc(OC)c1OC"
Result: -6.5% (inactive)

Q: Report max response, nothing else, for this molecule: "COCCCN1C(=O)c2ccc(C(=O)Nc3ccc(OC)cc3OC)cc2C1=O"
Result: 2.76% (inactive)

Q: Report max response, nothing else, for this molecule: "Cc1ccccc1-c1nc(NC(C)C)nc2cc(-c3ccccc3)sc12"
Result: 8.32% (inactive)

Q: Report max response, nothing else, for this molecule: Nc1ccccc1SC(C[N+](=O)[O-])c1ccccc1 (stereo unspecified)
Result: -75.7% (active)

Q: Report max response, nothing else, for this molecule: "Cc1ccc2[nH]cc(CCCN3C(=O)c4ccccc4C3=O)c2c1"
Result: -7.36% (inactive)

Q: Report max response, nothing else, for this molecule: Cc1ccc(C(C[N+](=O)[O-])c2c(C)cc3ccccn23)cc1 (stereo unspecified)
Result: 3.11% (inactive)
